Kindly supply the reported area under growth-rate inhibition curve values for the records listed here.
Test system: SKBR3-P
PROCEDURE TEXT: area under growth-rate inhibition curve (AUC GRI) (dimensionless (GR-based AUC)); higher = less growth inhibition
TEST SETTINGS: exposure time: 72 h; concentrations: 0.1, 1, 10 uM
Give the figure only, with no unit attached.

Identify the measured area under growth-rate inhibition curve of CN1CCN(C(c2ccccc2)c2ccccc2)CC1.[Cl-].[Cl-].[H+].[H+] [Cyclizine 2HCl] for SKBR3-P.
1.01

Identify the measured area under growth-rate inhibition curve of CN(C)[C@@H](CCOc1cccc2ccccc12)c1ccccc1.[Cl-].[H+] [Dapoxetine HCl] for SKBR3-P.
0.974

Identify the measured area under growth-rate inhibition curve of CN1c2ccccc2C(NCCCCCCC(=O)[O-])c2ccc(Cl)cc2S1(=O)=O.[Na+] (stereo unspecified) [Tianeptine sodium] for SKBR3-P.
1.01

Identify the measured area under growth-rate inhibition curve of `CN1CCC(=C2c3ccccc3CCn3c(C=O)cnc32)CC1` for SKBR3-P.
1.02

Identify the measured area under growth-rate inhibition curve of O=C1Cc2cc(CCN3CCN(c4nsc5ccccc45)CC3)c(Cl)cc2N1.[Cl-].[H+] [Ziprasidone hydrochloride] for SKBR3-P.
1

Identify the measured area under growth-rate inhibition curve of CCCCC(=O)O[C@H]1CC[C@H]2[C@@H]3CCc4cc(O)ccc4[C@H]3CC[C@]12C [Estradiol valerate] for SKBR3-P.
1.02

Identify the measured area under growth-rate inhibition curve of CN(C)C(=O)Oc1cc(OC(=O)N(C)C)cc(C(O)CNC(C)(C)C)c1.[Cl-].[H+] (stereo unspecified) [Bambuterol HCl] for SKBR3-P.
1.01

Identify the measured area under growth-rate inhibition curve of `O=C(Nc1cccc(Cl)c1)c1ccccn1` for SKBR3-P.
1.01

Identify the measured area under growth-rate inhibition curve of `CCC/N=C1\S/C(=C\c2ccc(OC[C@H](O)CO)c(Cl)c2)C(=O)N1c1ccccc1C` for SKBR3-P.
0.989

Identify the measured area under growth-rate inhibition curve of `CCOc1cc([C@@H](CS(C)(=O)=O)N2C(=O)c3cccc(NC(C)=O)c3C2=O)ccc1OC` for SKBR3-P.
1.02

Identify the measured area under growth-rate inhibition curve of COc1ccccc1N1CCN(CC(O)COc2cccc3ccccc23)CC1.[Cl-].[Cl-].[H+].[H+] (stereo unspecified) [Naftopidil DiHCl] for SKBR3-P.
0.983

Identify the measured area under growth-rate inhibition curve of CC(C)NCC(O)COc1ccc(CCOCC2CC2)cc1.[Cl-].[H+] (stereo unspecified) [Betaxolol hydrochloride (Betoptic)] for SKBR3-P.
0.98

Identify the measured area under growth-rate inhibition curve of `CCN(CC)CCOC(=O)c1ccc(N)cc1.[Cl-].[H+]` for SKBR3-P.
1.01

Identify the measured area under growth-rate inhibition curve of CN1CCC(=C2c3ccccc3CCc3cccnc32)CC1.O=C(O)C=CC(=O)O.O=C(O)C=CC(=O)O [Azatadine dimaleate] for SKBR3-P.
1.02

Identify the measured area under growth-rate inhibition curve of COc1ccccc1N1CCN(CC(O)COc2cccc3ccccc23)CC1 (stereo unspecified) for SKBR3-P.
1

Identify the measured area under growth-rate inhibition curve of CNC[C@H](O)c1ccc(O)c(O)c1.O=C(O)[C@H](O)[C@@H](O)C(=O)O [Epinephrine Bitartrate] for SKBR3-P.
1.01

Identify the measured area under growth-rate inhibition curve of `CNC(=NCCSCc1nc[nH]c1C)NC#N` for SKBR3-P.
1.02

Identify the measured area under growth-rate inhibition curve of CC1(C)C[C@@H]1C(=O)N/C(=C\CCCCSC[C@H](N)C(=O)O)C(=O)[O-].[Na+] [Cilastatin sodium] for SKBR3-P.
1.01

Identify the measured area under growth-rate inhibition curve of `Clc1ccc2c(c1)CCc1cccnc1C2=C1CCNCC1` for SKBR3-P.
0.998

Identify the measured area under growth-rate inhibition curve of Cc1ccc(-n2nccn2)c(C(=O)N2CCN(c3nc4cc(Cl)ccc4o3)CCC2C)c1 (stereo unspecified) for SKBR3-P.
0.995

Identify the measured area under growth-rate inhibition curve of `COC(=O)C1=CCCN(C)C1.[Br-].[H+]` for SKBR3-P.
1.02

Identify the measured area under growth-rate inhibition curve of COCCc1ccc(OCC(O)CNC(C)C)cc1.O=C(O)C(O)C(O)C(=O)O (stereo unspecified) [Metoprolol Tartrate] for SKBR3-P.
0.999

Identify the measured area under growth-rate inhibition curve of CNCCC(Oc1ccc(C(F)(F)F)cc1)c1ccccc1.[Cl-].[H+] (stereo unspecified) [Fluoxetine HCl] for SKBR3-P.
1.02

Identify the measured area under growth-rate inhibition curve of `CN(C)C(=O)N[C@H]1CC[C@H](CCN2CCN(c3cccc(Cl)c3Cl)CC2)CC1` for SKBR3-P.
1.01

Identify the measured area under growth-rate inhibition curve of COc1ccc(C(CN(C)C)C2(O)CCCCC2)cc1 (stereo unspecified) for SKBR3-P.
0.972

Identify the measured area under growth-rate inhibition curve of CN1CCCC1Cc1c[nH]c2ccc(CCS(=O)(=O)c3ccccc3)cc12.[Br-].[H+] (stereo unspecified) for SKBR3-P.
1.01

* * *

Kindly supply the reported area under growth-rate inhibition curve values for the records listed here.
System: SKBR3-P
PROCEDURE TEXT: area under growth-rate inhibition curve (AUC GRI) (dimensionless (GR-based AUC)); higher = less growth inhibition
TEST SETTINGS: exposure time: 72 h; concentrations: 0.1, 1, 10 uM
Give the figure only, with no unit attached.

Looking for the measured area under growth-rate inhibition curve of OCCN(CCO)c1nc(N2CCCCC2)c2nc(N(CCO)CCO)nc(N3CCCCC3)c2n1 [Dipyridamole] , can you help?
1.05

Looking for the measured area under growth-rate inhibition curve of Cc1cccc(C)c1NC1=NCCCS1.[Cl-].[H+] [Xylazine HCl] , can you help?
1.01

Looking for the measured area under growth-rate inhibition curve of CC(C)(C)NCC(O)COc1cccc2c1CCC(=O)N2.[Cl-].[H+] (stereo not drawn) [Carteolol HCl] , can you help?
1.04

Looking for the measured area under growth-rate inhibition curve of COC(=O)[C@H](c1ccccc1Cl)N1CCc2sccc2C1 [Clopidogrel] , can you help?
1.01

Looking for the measured area under growth-rate inhibition curve of O=C1CCc2ccc(OCCCCN3CCN(c4cccc(Cl)c4Cl)CC3)cc2N1 [Aripiprazole] , can you help?
0.971

Looking for the measured area under growth-rate inhibition curve of CC(C(O)c1ccc(O)cc1)N1CCC(Cc2ccccc2)CC1.CC(C(O)c1ccc(O)cc1)N1CCC(Cc2ccccc2)CC1.O=C(O)C(O)C(O)C(=O)O (stereo not drawn) [Ifenprodil Tartrate] , can you help?
0.985

Looking for the measured area under growth-rate inhibition curve of CNC[C@H](O)c1cccc(O)c1.Cl [Phenylephrine HCl] , can you help?
0.985

Looking for the measured area under growth-rate inhibition curve of Br.COc1ccc2c(c1)[C@@]13CCCCC1C(C2)N(C)CC3 (stereo partly drawn) [Dextromethorphan hydrobromide] , can you help?
1.02

Looking for the measured area under growth-rate inhibition curve of COc1ccccc1Oc1c(NS(=O)(=O)c2ccc(C(C)(C)C)cc2)nc(-c2ncccn2)nc1OCCO.O [Bosentan Hydrate] , can you help?
1.01

Looking for the measured area under growth-rate inhibition curve of COc1ccc2c(c1)c(CC(=O)N1CCOCC1)c(C)n2C(=O)c1ccc(Cl)cc1 [BML-190] , can you help?
1.02

Looking for the measured area under growth-rate inhibition curve of NCCCCC1NC(=O)C(Cc2c[nH]c3ccccc23)NC(=O)C(c2ccccc2)NC(=O)C2CC(OC(=O)NCCN)CN2C(=O)C(Cc2ccccc2)NC(=O)C(Cc2ccc(OCc3ccccc3)cc2)NC1=O (stereo not drawn) [Pasireotide] , can you help?
1.03

Looking for the measured area under growth-rate inhibition curve of Oc1ccc([C@H]2COc3cc(O)ccc3C2)cc1 [Equol] , can you help?
1.05

Looking for the measured area under growth-rate inhibition curve of O=C(O[C@H]1C[C@H]2CC[C@@H](C1)[N+]21CCCC1)C(O)(c1ccccc1)c1ccccc1.[Cl-] [Trospium chloride] , can you help?
1

Looking for the measured area under growth-rate inhibition curve of COc1cc2nc(N3CCN(C(=O)C4COc5ccccc5O4)CC3)nc(N)c2cc1OC.CS(=O)(=O)O (stereo not drawn) [Doxazosin Mesylate] , can you help?
0.958

Looking for the measured area under growth-rate inhibition curve of CC12CC3CC(C)(C1)CC(N)(C3)C2.Cl [Memantine HCl] , can you help?
1.03

Looking for the measured area under growth-rate inhibition curve of CNCC[C@H](Oc1cccc2ccccc12)c1cccs1.[Cl-].[H+] [Duloxetine HCl] , can you help?
0.964

Looking for the measured area under growth-rate inhibition curve of O=C(O)C=CC(=O)O.O=C(c1ccc(OCCCc2c[nH]cn2)cc1)C1CC1 [Ciproxifan] , can you help?
1.01

Looking for the measured area under growth-rate inhibition curve of c1ccc(NCc2ccc(CNc3ccccn3)cc2)nc1 [WZ811] , can you help?
1.01

Looking for the measured area under growth-rate inhibition curve of Nc1cccc2c1CN(C1CCC(=O)NC1=O)C2=O (stereo not drawn) [lenalidomide] , can you help?
1.02

Looking for the measured area under growth-rate inhibition curve of CC(CCc1ccccc1)NCC(O)c1ccc(O)c(C(N)=O)c1.Cl (stereo not drawn) [Labetalol HCl] , can you help?
1.01

Looking for the measured area under growth-rate inhibition curve of `Nc1nc(NCCc2ccc(O)cc2)nc2nc(-c3ccco3)nn12` , can you help?
0.822

Looking for the measured area under growth-rate inhibition curve of N#Cc1ccccc1-c1cc(-c2ccccn2)cn(-c2ccccc2)c1=O [Perampanel] , can you help?
1.03

Looking for the measured area under growth-rate inhibition curve of Cc1cc2c(cc1CC(=O)c1sccc1S(=O)(=O)[N-]c1onc(C)c1Cl)OCO2.[Na+] [Sitaxentan sodium] , can you help?
1.04

Looking for the measured area under growth-rate inhibition curve of CNCC(O)c1ccc(O)cc1 (stereo not drawn) [Synephrine] , can you help?
1.03

Looking for the measured area under growth-rate inhibition curve of Cc1cc(CS(=O)(=O)c2ccccc2)cc(OCc2ccc(CN3CCC[C@@H]3CO)cc2)c1 [PF-543] , can you help?
1.03

Looking for the measured area under growth-rate inhibition curve of `CN1CCN(C(=O)c2cc3cc(Cl)ccc3[nH]2)CC1` , can you help?
0.993

Looking for the measured area under growth-rate inhibition curve of `O=C(c1ccc(F)cc1)N1CCC[C@H](c2nc(-c3ccc(F)cc3)no2)C1` , can you help?
1.01

Looking for the measured area under growth-rate inhibition curve of Cl.Cl.OCCN1CCN(CCCN2c3ccccc3Sc3ccc(C(F)(F)F)cc32)CC1 [Fluphenazine dihydrochloride?] , can you help?
1.02
